Attribution: patent US6620828B2

Provide the reported CDK2 % Inhibition at 1.0 μM of each item.
# measured-on: CDK2/Cyclin A complex (Homo sapiens)
# test-details: CDK2/Cyclin A assay
# Format: biochemical
# condition-summary: 1.0 μM; combinatorial library compounds
Give bare numbers, in %.

Reference set, count: 2
>>> measured_number("Cc1c(-c2csc(-c3sc(Nc4ccc(N(C)C)cc4)nc3N)n2)sc2ccc(Cl)cc12 [drawing 550]")
17.1
>>> measured_number("CC(C)c1ccc(Nc2nc(N)c(-c3nc(-c4ccccc4)cs3)s2)cc1 [drawing 498]")
18.5

Would you mind giving CDK2 % Inhibition at 1.0 μM for every molecule in the list below?
1. Nc1nc(Nc2ccc(S(N)(=O)=O)cc2)sc1-c1nc(-c2ccccc2)cs1 [drawing 421]
2. COc1ccc(-c2csc(-c3sc(Nc4ccc(C(C)C)cc4)nc3N)n2)cc1 [drawing 488]
3. COc1ccc(-c2csc(-c3sc(Nc4ccc(N(C)C)cc4)nc3N)n2)cc1 [drawing 525]
4. CN(C)c1ccc(Nc2nc(N)c(-c3nc(-c4ccccc4)cs3)s2)cc1 [drawing 561]
5. Cc1c(-c2csc(-c3sc(Nc4ccc(C(C)C)cc4)nc3N)n2)sc2ccc(Cl)cc12 [drawing 489]

Completion:
1: 8.2; 2: 38.3; 3: 6.1; 4: 19.7; 5: 31

Would you mind giving CDK2 % Inhibition at 1.0 μM for every molecule in the list below?
1. Cc1c(-c2csc(-c3sc(Nc4ccc(S(N)(=O)=O)cc4)nc3N)n2)sc2ccc(Cl)cc12 [drawing 426]
2. Nc1nc(Nc2ccc(S(N)(=O)=O)cc2)sc1-c1nc(-c2ccccc2)cs1 [drawing 435]

Completion:
1: 56; 2: 60.8

Would you mind giving CDK2 % Inhibition at 1.0 μM for every molecule in the list below?
1. COc1ccc(-c2csc(-c3sc(Nc4ccc(N(C)C)cc4)nc3N)n2)cc1 [drawing 551]
2. Cc1c(-c2csc(-c3sc(Nc4ccc(N(C)C)cc4)nc3N)n2)sc2ccc(Cl)cc12 [drawing 552]
3. COc1ccc(-c2csc(-c3sc(Nc4ccc(S(N)(=O)=O)cc4)nc3N)n2)cc1 [drawing 425]
4. COc1ccc(-c2csc(-c3sc(Nc4ccc(S(N)(=O)=O)cc4)nc3N)n2)cc1 [drawing 399]

Completion:
29.8
37.3
54.2
10.7
